Some compounds, each annotated with its measured inhibition.
Tested on: Platelet-derived growth factor receptor alpha (Homo sapiens), P16234 [V561D]
Sequence (P16234 whole entry V561D): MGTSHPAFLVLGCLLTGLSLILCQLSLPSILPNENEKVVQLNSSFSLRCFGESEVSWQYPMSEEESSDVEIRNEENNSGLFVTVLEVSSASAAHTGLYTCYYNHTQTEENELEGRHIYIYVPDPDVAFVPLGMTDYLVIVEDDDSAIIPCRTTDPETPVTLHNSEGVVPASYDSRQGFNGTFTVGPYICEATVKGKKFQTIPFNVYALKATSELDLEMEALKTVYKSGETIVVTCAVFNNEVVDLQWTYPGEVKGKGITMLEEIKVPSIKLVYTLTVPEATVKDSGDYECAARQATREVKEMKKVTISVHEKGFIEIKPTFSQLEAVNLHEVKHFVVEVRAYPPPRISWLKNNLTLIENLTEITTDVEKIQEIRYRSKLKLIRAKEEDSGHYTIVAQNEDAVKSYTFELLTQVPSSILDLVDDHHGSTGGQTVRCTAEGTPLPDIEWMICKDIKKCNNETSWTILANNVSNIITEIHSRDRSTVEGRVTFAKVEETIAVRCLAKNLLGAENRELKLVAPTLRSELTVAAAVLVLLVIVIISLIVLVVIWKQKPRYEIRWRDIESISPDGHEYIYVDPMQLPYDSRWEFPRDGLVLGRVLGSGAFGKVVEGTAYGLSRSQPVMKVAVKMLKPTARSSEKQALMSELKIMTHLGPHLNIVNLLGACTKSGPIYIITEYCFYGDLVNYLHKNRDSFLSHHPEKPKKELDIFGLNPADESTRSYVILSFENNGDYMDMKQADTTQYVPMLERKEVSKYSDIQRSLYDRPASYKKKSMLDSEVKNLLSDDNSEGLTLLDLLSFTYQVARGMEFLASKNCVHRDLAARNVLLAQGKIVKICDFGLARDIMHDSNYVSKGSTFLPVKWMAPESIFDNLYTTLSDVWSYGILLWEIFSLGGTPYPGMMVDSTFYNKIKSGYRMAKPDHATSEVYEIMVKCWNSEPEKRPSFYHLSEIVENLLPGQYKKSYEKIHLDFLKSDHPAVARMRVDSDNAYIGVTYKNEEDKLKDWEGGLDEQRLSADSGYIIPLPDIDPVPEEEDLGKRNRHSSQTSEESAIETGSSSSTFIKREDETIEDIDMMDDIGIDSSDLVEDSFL
Settings: at 0.1 µM
The response must be a number in % with no trailing unit.

CCS(=O)(=O)c1ccc(OC)c(Nc2ncc(-c3cccc(C(C)=O)c3)o2)c1 | 22.1
CCS(=O)(=O)c1ccc(OC)c(Nc2ncc(-c3cccc(F)c3)o2)c1 | 21.4
N#Cc1cccc(Nc2ncc(-c3ccccc3)o2)c1 | 16.2
CCn1c(-c2nonc2N)nc2cncc(C(=O)NCCNC)c21 | 3.13
COc1cc2c(cc1Nc1nc(Nc3cccc(F)c3C(N)=O)c3cc[nH]c3n1)N(C(=O)CN1CCN(C(C)C)CC1)CC2 | -0.47

Considering `Cc1c2ccc(N(C)c3ccnc(Nc4cccc(S(N)(=O)=O)c4)n3)cc2nn1C` , its inhibition with Platelet-derived growth factor receptor alpha (Homo sapiens), P16234 [V561D] was recorded as 71.5

====

Biological target: Cyclin-dependent kinase 2 (Homo sapiens);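 also: mean inhibition of the CDK2–cyclin A kinase complex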
Settings: at 1 µM
PARAMETER_MEASURED: inhibition (%)
Could you give me the number in %? Just the number is fine.

Cc1c2ccc(N(C)c3ccnc(Nc4cccc(S(N)(=O)=O)c4)n3)cc2nn1C | 4.54

Then there is this compound:
Input CC1=C(C(=O)Nc2ccc3[nH]nc(C)c3c2)C(c2ccc(C(F)(F)F)cc2)CC(=O)N1 (stereo not given) . Output inhibition: 6.05

====

Target: Cyclin-dependent kinase 5 (Homo sapiens) (UniProt Q00535);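 also: mean value of inhibition, with the enzyme tested as CDK5/p35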
Sequence (Q00535 whole entry, looked up): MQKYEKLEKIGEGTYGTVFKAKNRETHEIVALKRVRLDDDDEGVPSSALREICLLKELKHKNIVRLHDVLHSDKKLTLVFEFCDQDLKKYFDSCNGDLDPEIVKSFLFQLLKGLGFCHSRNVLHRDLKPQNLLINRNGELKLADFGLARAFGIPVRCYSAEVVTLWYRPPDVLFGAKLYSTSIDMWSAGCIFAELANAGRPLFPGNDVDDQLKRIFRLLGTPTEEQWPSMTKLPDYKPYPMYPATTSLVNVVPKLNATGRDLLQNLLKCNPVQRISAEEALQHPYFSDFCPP
Details: at 1 µM
Everything with inhibition lower than 3% is false; everything else, including exactly 3%, is true.

CC(C)c1ccc(-c2cc(-c3c[nH]nc3-c3ccccn3)ccn2)cc1 | false
NS(=O)(=O)c1ccc(N/N=C2\C(=O)Nc3cccc(CCc4ccncc4)c32)cc1 | true
CCS(=O)(=O)c1ccc(OC)c(Nc2ncc(-c3cccc(F)c3)o2)c1 | false
CN1CCC(n2cnc(-c3ccc(F)cc3)c2-c2ccnc(NCCO)n2)CC1 | false
COc1ccccc1-c1cc(/C=C2\C(=O)Nc3ncc(Br)cc32)cc(Br)c1O | true
Fc1cccc(COc2ccc(Nc3ncncc3C#Cc3ccccc3)cc2Cl)c1 | false
CN(c1ccc(NC(=O)NCCN2CCOCC2)cc1)c1ccnc(Nc2ccc(CS(C)(=O)=O)cc2)n1 | false
c1ccc(-c2n[nH]cc2-c2ccnc(-c3ccc(OCCn4ccnc4)cc3)c2)nc1 | true

Would you kindly look at the next entry?
Decide: is the reported value of inhibition for `CCN1CCC(C(=O)Nc2n[nH]c3nnc(-c4cccc(F)c4F)cc23)CC1` equal to or greater than 3%?
true

====

Entries and their inhibition
Target: Serine/threonine-protein kinase pim-3 (Homo sapiens)
Settings: at 1 µM
Description: GSK_PKIS: PIM3 mean inhibition at 1 uM [Nanosyn]
The answer is to be given in %; state only the numeric part.

FC(F)(F)CNc1nccc(-c2cnn3ncccc23)n1 | 1.93
CCS(=O)(=O)c1ccc(OC)c(Nc2ncc(-c3cccc(F)c3)o2)c1 | 3.65
COc1cccc(Nc2nccc(-c3cnn4ncccc34)n2)c1 | 17.6

So, `CNC(=O)c1cncc(/C=C/c2ccccc2C)c1` ? Its inhibition was 5.04

====

Biological target: Serine/threonine-protein kinase TBK1 (Homo sapiens) (UniProt Q9UHD2);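 also: values are mean inhibition of TBK1, screened as part of the GSK published kinase inhibitor set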
Sequence (whole entry): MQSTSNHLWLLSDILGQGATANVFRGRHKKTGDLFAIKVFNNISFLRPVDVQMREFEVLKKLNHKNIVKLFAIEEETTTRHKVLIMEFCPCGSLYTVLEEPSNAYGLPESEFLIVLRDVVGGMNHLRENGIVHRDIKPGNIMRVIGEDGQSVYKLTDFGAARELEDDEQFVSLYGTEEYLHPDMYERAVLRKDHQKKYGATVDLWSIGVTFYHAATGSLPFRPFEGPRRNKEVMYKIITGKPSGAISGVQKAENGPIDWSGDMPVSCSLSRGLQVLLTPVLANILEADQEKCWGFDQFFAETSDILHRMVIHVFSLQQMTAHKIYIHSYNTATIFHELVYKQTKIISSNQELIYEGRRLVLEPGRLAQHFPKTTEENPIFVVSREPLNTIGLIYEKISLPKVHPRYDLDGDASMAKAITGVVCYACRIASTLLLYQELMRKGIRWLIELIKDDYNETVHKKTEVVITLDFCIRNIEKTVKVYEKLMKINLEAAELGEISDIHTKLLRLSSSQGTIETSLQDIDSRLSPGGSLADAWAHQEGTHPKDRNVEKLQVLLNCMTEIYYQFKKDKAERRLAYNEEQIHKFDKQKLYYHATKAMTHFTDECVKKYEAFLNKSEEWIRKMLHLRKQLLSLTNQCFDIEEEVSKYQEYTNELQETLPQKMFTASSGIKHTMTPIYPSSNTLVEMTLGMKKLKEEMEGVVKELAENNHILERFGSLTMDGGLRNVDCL
Conditions: at 1 µM
Label T for high-side inhibition (at or above 3%) and F for low-side inhibition (below it).

c1ccc(-c2n[nH]cc2-c2ccnc(-c3ccc(OCCn4ccnc4)cc3)c2)nc1 | F
Fc1cccc(COc2ccc(Nc3ncncc3C#Cc3ccccc3)cc2Cl)c1 | T

# bool: inhibition of `CC1(C)CC(n2cnc(-c3ccc(F)cc3)c2-c2ccnc(N)n2)CC(C)(C)N1` >= 3%
F

Kindly determine if inhibition recorded for CC1=C(C(=O)Nc2ccc3[nH]ncc3c2)C(c2ccc(F)cc2)N=C(c2ccc(C(F)(F)F)nc2)N1 (stereo not given) is above or exactly 3%.
F

====

Target: Casein kinase I isoform alpha (Homo sapiens) (UniProt P48729);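 also: values are the mean percent inhibition of CK1a, averaged over measurements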
Sequence (P48729 2-337 limits assumed): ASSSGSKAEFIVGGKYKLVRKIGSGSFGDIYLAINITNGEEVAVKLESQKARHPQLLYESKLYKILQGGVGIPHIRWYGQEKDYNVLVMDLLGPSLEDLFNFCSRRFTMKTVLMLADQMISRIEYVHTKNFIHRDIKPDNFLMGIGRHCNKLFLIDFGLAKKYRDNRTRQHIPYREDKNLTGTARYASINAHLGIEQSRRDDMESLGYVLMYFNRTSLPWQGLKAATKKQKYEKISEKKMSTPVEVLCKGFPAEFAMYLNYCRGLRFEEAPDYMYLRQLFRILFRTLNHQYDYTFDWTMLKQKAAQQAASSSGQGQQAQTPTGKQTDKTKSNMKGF
Conditions: at 0.1 µM
PARAMETER_MEASURED: inhibition (%)
Give a bare numeral; the unit % is implied.

N#Cc1ccc2c(-c3ccnc(NC4CC4)n3)c(-c3ccc(F)cc3)nn2c1 | 3.72
CCS(=O)(=O)c1ccc(OC)c(Nc2ncc(-c3cccc(F)c3)o2)c1 | 5.47
COc1ccc(Nc2ncc(-c3ccccc3)o2)cc1OC | 3.39
COc1ccccc1-c1cc(/C=C2\C(=O)Nc3ncc(Br)cc32)cc(Br)c1O | 2.91
COc1cc(Nc2ncc(-c3ccccc3)o2)cc(OC)c1 | 4.52
COc1ccc2ncn(-c3cc(O[C@H](C)c4ccccc4C(F)(F)F)c(C(N)=O)s3)c2c1 | 0.31
CS(=O)(=O)CCNCc1ccoc1-c1ccc2ncnc(Nc3ccc(OCc4ccccc4)cc3)c2c1 | 1.49
O=C(O[C@H]1CN[C@H](C#Cc2cc3ncnc(Nc4ccc5c(cnn5Cc5ccccc5)c4)c3s2)C1)N1CCOCC1 | -2.11
CC(C)c1ccc(-c2cc(-c3c[nH]nc3-c3ccccn3)ccn2)cc1 | 3.57
CCn1c(-c2nonc2N)nc2cncc(C(=O)NCCNC)c21 | 4.37

The reported inhibition of the compound `COC(=O)Nc1nc2ccc(Oc3ccc(NC(=O)Nc4cc(C(F)(F)F)ccc4F)cc3)cc2s1` was -1.12

In plain terms, CC1=C(C(=O)Nc2ccc3[nH]nc(C)c3c2)C(c2ccc(C(F)(F)F)cc2)CC(=O)N1 (stereo not given) has a documented inhibition of 2.09

Form: compound = `CCOc1ccc2c(-c3ccnc(Nc4cc(OC)cc(C(F)(F)F)c4)n3)cnn2n1` ; inhibition = 2.19

inhibition reading for `NS(=O)(=O)c1ccc(N/N=C2\C(=O)Nc3ccc(C(=O)NCc4ccncc4)cc32)cc1` : 1.19

Notebook: `OCCCNc1nccc(-c2c(-c3ccc(F)cc3)nn3cc(C(F)(F)F)ccc23)n1` , inhibition read as 8.54

Noted for `CCCNc1cccc(-n2ncc3c(N/N=C/c4ccncc4)ncnc32)c1` : its inhibition reads 0.14

# compound CC1=C(C(=O)Nc2ccc3[nH]ncc3c2)C(c2ccc(F)cc2)N=C(c2ccc(C(F)(F)F)nc2)N1 (stereo not given) ; its inhibition = 0.89

Per the record, `CCS(=O)(=O)c1ccc(OC)c(Nc2ncc(-c3cccc(C(C)=O)c3)o2)c1` has inhibition of 0.47

For `CCN1CCC(C(=O)Nc2n[nH]c3nnc(-c4cccc(F)c4F)cc23)CC1` the compound record lists inhibition as -1.81

Notebook: `COc1cc(N2CCN(C(C)C)CC2)ccc1Nc1nc(Nc2cccc(F)c2C(=O)O)c2cc[nH]c2n1` , inhibition read as 6.82

====

Biological target: Tyrosine-protein kinase Fyn (Homo sapiens)
Conditions: at 1 µM
Description: GSK_PKIS: FYN mean inhibition at 1 uM [Nanosyn]
Measured inhibition, listed per entry.
Number plus unit, in that order.

CS(=O)(=O)Nc1ccc(-c2cc(-c3ccccc3)cc(C(N)=O)c2N)cc1 | -0.83%
CN(C)CCNC(=O)Nc1ccc(N(C)c2ccnc(Nc3ccc(CS(C)(=O)=O)cc3)n2)cc1 | 3.44%
c1ccc(-c2n[nH]cc2-c2ccnc(-c3ccc(OCCn4ccnc4)cc3)c2)nc1 | 7.07%
N#Cc1cccc(Nc2ncc(-c3ccccc3)o2)c1 | 10.8%

For the next question, use this molecule.
Param item: `Cc1nnc(-c2cccc(-c3ccc(C(=O)NCC4CC4)cc3)c2)o1` ; param system: Tyrosine-protein kinase Fyn (Homo sapiens); output inhibition: 0.54%

====

Target: Serine/threonine-protein kinase B-raf (Homo sapiens);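 also: mean percent inhibition of BRAF kinase activity, from the GSK PKIS kinase inhibitor screening set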
Details: at 0.1 µM
PARAMETER_MEASURED: inhibition (%)
Respond numerically; units are % and should not be typed.

As a guide, the following entries are already answered.
COc1cc(N2CCN(C(C)C)CC2)ccc1Nc1nc(Nc2cccc(F)c2C(=O)O)c2cc[nH]c2n1 | 6.1
FC(F)(F)CNc1nccc(-c2cnn3ncccc23)n1 | 4.03
CN(c1ccc(NC(=O)NCCN2CCOCC2)cc1)c1ccnc(Nc2ccc(CS(C)(=O)=O)cc2)n1 | 4.55
CC1(C)CC(n2cnc(-c3ccc(F)cc3)c2-c2ccnc(N)n2)CC(C)(C)N1 | 1.97

So for `CCCNc1cccc(-n2ncc3c(N/N=C/c4ccncc4)ncnc32)c1` , the logged inhibition turned out to be 0
